- Tested on: Plasmodium falciparum
- Test: Screen against P. falciparum Asexual Blood Stage (ABS), at 5uM
- Type: functional, Dd2
- Condition Set: tested at 5 uM
About 2,100 (3.2%) of roughly 65,000 compounds showed an effect of 50% or more. The median lay at about -52%. The entries come from a sample that favours strong results as a whole.
Quick rule for you: INHIBITION at -80% or higher means Fulfilled, lower means Not fulfilled.

Test whether the compound O=C(COc1coc(CN2CCOCC2)cc1=O)Nc1ccc(Cl)cc1 records INHIBITION of -80% or higher.
Not fulfilled

Same for CN(C)c1ncccc1CNC(=O)N1CCCC1CN1CCCC1 (configuration not stated)
Not fulfilled

Same for CN1CCOC(CNCc2ccc(OCc3ccccn3)cc2)C1 (configuration not stated)
Fulfilled

Same for CCCc1nc(C(C)(C)NC(=O)C2CC(=O)N(CC)C2)no1 (configuration not stated)
Fulfilled

Same for COCC(O)CNC(=O)Nc1ccc(Cl)cc1-n1cccc1 (configuration not stated)
Fulfilled

Same for Cc1cnn(CCNCc2ccccc2OCc2ccncc2)c1
Fulfilled

Same for COCCC1COC2(CCN(C(=O)c3ccsc3)CC2)C1 (configuration not stated)
Not fulfilled

Same for CCN1CCOC(CNCc2ccccc2OCc2ccccn2)C1 (configuration not stated)
Fulfilled

Same for CCN1CCOC(CNCc2ccccc2OCC(=O)N(C)C)C1 (configuration not stated)
Fulfilled

Same for CC(C)(C)c1cn(C2CCN(C3CCSC3)CC2)nn1 (configuration not stated)
Not fulfilled

Same for N#CC1(NC(=O)c2ccc(F)c(Br)c2)CCSC1 (configuration not stated)
Not fulfilled
